The reported numbers originate from patent US20190106487A1.

Reported functional reporter gene assay (% inhibition), 1 µg/mL mAb by item:
Molecular target: T1, human IL-1RAcP on 293T/17-FR cells (human, UniProt Q9NPH3 21-570)
T1 sequence (looked up): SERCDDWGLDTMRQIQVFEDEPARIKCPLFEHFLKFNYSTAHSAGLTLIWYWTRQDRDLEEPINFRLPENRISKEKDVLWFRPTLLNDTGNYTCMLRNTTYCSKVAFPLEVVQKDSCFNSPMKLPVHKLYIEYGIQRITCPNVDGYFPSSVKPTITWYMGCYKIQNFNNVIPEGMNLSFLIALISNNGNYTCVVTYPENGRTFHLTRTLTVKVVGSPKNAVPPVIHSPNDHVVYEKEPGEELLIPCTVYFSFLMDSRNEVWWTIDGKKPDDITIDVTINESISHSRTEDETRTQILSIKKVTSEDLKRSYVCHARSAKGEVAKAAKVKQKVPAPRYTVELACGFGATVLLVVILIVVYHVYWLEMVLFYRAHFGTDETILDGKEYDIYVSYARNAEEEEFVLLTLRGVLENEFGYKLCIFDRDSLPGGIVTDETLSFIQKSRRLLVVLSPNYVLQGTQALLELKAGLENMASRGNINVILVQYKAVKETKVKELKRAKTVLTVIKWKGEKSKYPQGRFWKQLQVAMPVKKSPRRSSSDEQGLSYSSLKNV
Assay: cell-based or functional assay
Report as a plain number; the unit % is understood.

• P013.S.01.B.B02 (antibody, V domains shown, rabbit monoclonal antibody; also called P013.A.00014.B03) VH: LEQSGGGAEGGLVKPGGSLELCCKASGFSLSSSYWICWVRQAPGKGLEWIGCIYTGSSGITYYASWVNGRFTLSRDIDQSTGCLQLNSLTAADTAMYYCAKDGPSTLFNFWGQGTLVTVSS VL: ALVMTQTPSPVSAAVGGTVTINCQASEDIYSNLAWFQQKPGQPPKLLIYRASTLASGVPSRFKGSGSGTEFTLTISGLQSDDAATYYCLGVYTYPSADNAFGGGTEVVVR = 94
• P013.S.01.B.F04 (antibody, V domains shown, rabbit monoclonal antibody; also called P013.A.00133.A12) VH: LEQSGGGAEGGLVKPGGSLELCCKASGFSLSTSYWRCWVRQAPGKGLEWIGCIYAGSSDATYYANWVNGRFTLSRDIDQSTGCLQLNSLTAADTAMYYCASGVGFGYFNLWGQGTLVTVSS VL: ALVMTQTPSPVSAAVGGTVTINCQASEDIYSNLAWFQQKPGQPPKLLIYDASTLASGVPSRFSGSGSGTEFTLTISGLQSDDAATYYCLGVYTHISADNAFGGGTEVVVK = 95
• P013.S.01.B.C05 (antibody, V domains shown, rabbit monoclonal antibody; also called P013.A.00045.E06) VH: QSVEESGGRLVTPGTPLTLTCTVSGFSLSNYAMSWVRQAPGKGLEYIGIIDSGGSAYYATWARGRFTISRTSTTVDLKMTSPTTEDTATYFCARGGPAYSTNTHYTLDLWGPGTLVTVSS VL: AFEMTQTPSSVSEPVGGTVTIKCQASQSIYNYLSWYQQKPGQPPKLLIYDASELASGVPSRFKGSGSGTEFTLTISGVQSDDAATYYCQQGATTYNIENVFGGGTEVVVK = 87
• P013.S.01.B.H04 (antibody, V domains shown, rabbit monoclonal antibody; also called P013.A.00014.G05) VH: QSVEESGGRLVTPGTPLTLTCTVSGFSLDSYAMGWVRQAPGKGLEWIGIINSYGSIYYASWAKGRFTISKTSTTVDLKMTSLTTEDTATYFCARSAYSNNGDRLHLWGQGTLVTVSS VL: DIVMTQTPSPVSGAVGGTVTIKCQASEDIYSNLAWYQQKPGQPPKLLIYYVSTLESGVPSRFKGSRSGTDYTLTISDLESADAATYYCQCTEGGSGSDYTFGGGTEVVVK = 49
• P013.S.02.B.C03 (antibody, V domains shown, rabbit monoclonal antibody; also called P013.A.00085.G07) VH: QSLEESGGRLVTPGTPLTLTCTVSGIDLSSYAMGWVRQAPGKGLEYIGIISNSGTTYYASWAKGRFTISKTSSTTVDLKMTSPTTEDTATYFCARDRYANTHGIFSLWGQGTLVTVSS VL: DIVMTQTPASVSAPVGGTVTINCQASESIYSDLAWYQQKPGQPPKLLISFVATLESGVPSRFKGSGSGTEFTLTISDLESADAATYYCQCTYGGSGSGNGAAFGGGTEVVVK = 31
• P013.S.02.B.F05 (antibody, V domains shown, rabbit monoclonal antibody; also called P013.A.00109.B04) VH: RSLEESGGDLVKPGTSLTLTCTASGFSFSGNYYMCWVRQAPGKGLEWIACIVVGSGGNTYYAGWAKRRFTISKTSSTTVTLQMTSLTAADTATYFCASGSYDDYGDYWYFTLWGQGTLVTVSS VL: AIDMTQTPSPASAGVGDTVTINCQASENIYNFLAWYQQKPGHSPKLLIYVASKLASGVPSRFKGSGSGTQFTLTISDVQSDDAATYYCQQTYRYNDGDTAFGGGTEVVVK = 11

// below: functional reporter gene assay (% inhibition), 1 µg/mL mAb requested for another binder
Entry P013.S.01.B.G06 (antibody, V domains shown, rabbit monoclonal antibody; also called P013.A.00085.H05) VH: QSLEESGGRLVTPGTPLTLTCTASGFTISSYYMSWVRQAPGKGLEWIGGIATDGNTYYANWAKGRFTVSRTSTTVDLKVTSPTAEDTATYFCARGGPAYSRGTHYAMDLWGPGTLVTVSS VL: AYDMTQTPASVEVAVGGTVTIKCQASQSIYIYLAWYQQKPGQRPKQLIYDASKLASGVPSRFSGSGSGTEFTLTISGVESADAATYYCQQGATIWNVDNPFGGGTEVVVK : reported functional reporter gene assay (% inhibition), 1 µg/mL mAb = ?
94
